assay: activity coefficient (dimensionless); of the first substance listed, at infinite dilution; xn = mol fraction of the nth substance listed; conditions: 388.15 K; 101 kPa; Liquid; Chromatography; x1 = 0
Exercise: for every item that follows, state its recorded activity coefficient.
Numbers only.

Consider the worked cases shown below.
| Compound | activity coefficient |
| --- | --- |
| CC1CCCCC1 [methylcyclohexane] + CCCCn1cc[n+](C)c1.COP(=O)([O-])OC | 16.1 |
| c1ccsc1 [thiophene] + CCCCn1cc[n+](C)c1.[Cl-] | 2.41 |
| CC#N [acetonitrile] + CCCCn1cc[n+](C)c1.[Cl-] | 1.28 |
| COC(C)=O [methyl ethanoate] + CCCCn1cc[n+](C)c1.CS(=O)(=O)[O-] | 3.33 |
| CCCOCCC [dipropyl ether] + CCCCn1cc[n+](C)c1.CS(=O)(=O)[O-] | 39.4 |

Value sought for every listed compound: activity coefficient.
1. C=CCCCC [hex-1-ene] + CCCCn1cc[n+](C)c1.[Cl-]
2. CCC(C)(C)OC [2-methoxy-2-methylbutane] + CCCCn1cc[n+](C)c1.[Cl-]
3. Cc1ccc(C)cc1 [1,4-dimethylbenzene] + CCCCn1cc[n+](C)c1.COP(=O)([O-])OC

1. 52
2. 32.1
3. 6.86

Value sought for every listed compound: activity coefficient.
1. C1=CCCCC1 [cyclohexene] + CCCCn1cc[n+](C)c1.COP(=O)([O-])OC
2. CCc1ccccc1 [ethylbenzene] + CCCCn1cc[n+](C)c1.CS(=O)(=O)[O-]
3. C1CCCC1 [cyclopentane] + CCCCn1cc[n+](C)c1.COP(=O)([O-])OC
4. c1ccsc1 [thiophene] + CCCCn1cc[n+](C)c1.COP(=O)([O-])OC
5. CCOCC [diethyl ether] + CCCCn1cc[n+](C)c1.[Cl-]
6. C=COC(C)=O [vinyl acetate] + CCCCn1cc[n+](C)c1.[Cl-]
7. CCCCCCCCCC [decane] + CCCCn1cc[n+](C)c1.[Cl-]
8. C=CCCCCC [1-heptene] + CCCCn1cc[n+](C)c1.CS(=O)(=O)[O-]

[7.11, 9.05, 8.33, 1.53, 18.4, 6.05, 560, 58]

Value sought for every listed compound: activity coefficient.
1. Cc1cccc(C)c1 [1,3-dimethylbenzene] + CCCCn1cc[n+](C)c1.COP(=O)([O-])OC
2. CCCCCCCCC [nonane] + CCCCn1cc[n+](C)c1.[Cl-]

7
376

Value sought for every listed compound: activity coefficient.
1. C1CCOC1 [tetrahydrofuran] + CCCCn1cc[n+](C)c1.CS(=O)(=O)[O-]
2. CC1CCCCC1 [methylcyclohexane] + CCCCn1cc[n+](C)c1.[Cl-]
3. C=C(C)c1ccccc1 [(1-methylethenyl)benzene] + CCCCn1cc[n+](C)c1.COP(=O)([O-])OC
4. C1COCCO1 [1,4-dioxane] + CCCCn1cc[n+](C)c1.[Cl-]
5. C1=CCCCC1 [cyclohexene] + CCCCn1cc[n+](C)c1.[Cl-]

[3.72, 69.8, 5.29, 3.74, 21.3]

====

Exercise: for every item that follows, state its recorded activity coefficient.
test: activity coefficient (dimensionless); of the first substance listed, at infinite dilution; xn = mol fraction of the nth substance listed; details: 428.15 K; 101 kPa; Liquid; Chromatography; x1 = 0
One number for each entry.

| Molecule | activity coefficient |
| --- | --- |
| CCC(C)O (stereo not drawn) [butan-2-ol] + CCCCn1cc[n+](C)c1.CS(=O)(=O)[O-] | 1.33 |

Value sought for every listed molecule: activity coefficient.
1. CC(C)CO [2-methyl-1-propanol] + CCCCn1cc[n+](C)c1.CS(=O)(=O)[O-]
2. CCCCO [butan-1-ol] + CCCCn1cc[n+](C)c1.COP(=O)([O-])OC

1: 1.04; 2: 0.324

====

assay: activity coefficient (dimensionless); of the first substance listed, at infinite dilution; xn = mol fraction of the nth substance listed; conditions: 358.15 K; 101 kPa; Liquid; Chromatography; x1 = 0
Measured endpoint: activity coefficient
Give bare numbers.

| Molecule | activity coefficient |
| --- | --- |
| C=CCCCCCC [oct-1-ene] + CCCCn1cc[n+](C)c1.[Cl-] | 142 |
| CCOC(C)=O [ethyl acetate] + CCCCn1cc[n+](C)c1.CS(=O)(=O)[O-] | 4.76 |
| CCCOCCC [dipropyl ether] + CCCCn1cc[n+](C)c1.CS(=O)(=O)[O-] | 38.1 |
| C=C(C)c1ccccc1 [(1-methylethenyl)benzene] + CCCCn1cc[n+](C)c1.[Cl-] | 9.01 |
| C1CCCC1 [cyclopentane] + CCCCn1cc[n+](C)c1.[Cl-] | 38.7 |

As a next step, examine the molecule that follows.
// fetch activity coefficient given entry CCCOCCC [dipropyl ether] + CCCCn1cc[n+](C)c1.COP(=O)([O-])OC
13.9

====

assay: activity coefficient (dimensionless); of the first substance listed, at infinite dilution; xn = mol fraction of the nth substance listed; settings: 388.15 K; 101 kPa; Liquid; Chromatography; x1 = 0
# strict inequality: activity coefficient < 10 yields Condition met, everything else yields Condition not met

| Compound | Assigned class |
| --- | --- |
| C=CCCCCCC [oct-1-ene] + CCCCn1cc[n+](C)c1.[Cl-] | Condition not met |
| C1CCCCCCC1 [cyclooctane] + CCCCn1cc[n+](C)c1.[Cl-] | Condition not met |
| C=CCCCCCCCC [1-decene] + CCCCn1cc[n+](C)c1.[Cl-] | Condition not met |
| CCCCCCCC [octane] + CCCCn1cc[n+](C)c1.[Cl-] | Condition not met |

Next item in the queue.
Lab log: compare recorded activity coefficient with 10; is it strictly lower for C=C(C)c1ccccc1 [(1-methylethenyl)benzene] + CCCCn1cc[n+](C)c1.[Cl-] ?
Condition not met

====

test: activity coefficient (dimensionless); of the first substance listed, at infinite dilution; xn = mol fraction of the nth substance listed; conditions: 368.15 K; 101 kPa; Liquid; Chromatography; x1 = 0
Measured endpoint: activity coefficient
One number for each entry.

| Compound | Quantitative result |
| --- | --- |
| CC#N [acetonitrile] + CCCCn1cc[n+](C)c1.CS(=O)(=O)[O-] | 1.03 |
| C1CCCCCCC1 [cyclooctane] + CCCCn1cc[n+](C)c1.COP(=O)([O-])OC | 18.2 |
| CCC(C)(C)OC [2-methoxy-2-methylbutane] + CCCCn1cc[n+](C)c1.[Cl-] | 33.1 |

Value sought for every listed compound: activity coefficient.
1. CCCC(=O)OC [methyl butanoate] + CCCCn1cc[n+](C)c1.[Cl-]
2. C1CCCCCC1 [cycloheptane] + CCCCn1cc[n+](C)c1.[Cl-]
3. CCOC(C)=O [ethyl acetate] + CCCCn1cc[n+](C)c1.[Cl-]
4. C=CCCCCCCCC [1-decene] + CCCCn1cc[n+](C)c1.COP(=O)([O-])OC
5. Cc1ccc(C)cc1 [1,4-dimethylbenzene] + CCCCn1cc[n+](C)c1.CS(=O)(=O)[O-]

[12.4, 58.8, 9.06, 52.2, 9.2]

Value sought for every listed compound: activity coefficient.
1. CCCC(C)=O [pentan-2-one] + CCCCn1cc[n+](C)c1.CS(=O)(=O)[O-]
2. c1ccsc1 [thiophene] + CCCCn1cc[n+](C)c1.CS(=O)(=O)[O-]
3. C=COC(C)=O [vinyl acetate] + CCCCn1cc[n+](C)c1.COP(=O)([O-])OC

[4.59, 1.81, 2.88]

====

test: activity coefficient (dimensionless); of the first substance listed, at infinite dilution; xn = mol fraction of the nth substance listed; conditions: 388.15 K; 101 kPa; Liquid; Chromatography; x1 = 0
Threshold check on activity coefficient: at or above 4 gives 1.0, strictly below gives 0.0.

Worked set:
| Compound | Assigned class |
| --- | --- |
| CCOC(C)=O [ethyl acetate] + CCCCn1cc[n+](C)c1.COP(=O)([O-])OC | 1.0 |
| CCOC(C)(C)C [2-ethoxy-2-methylpropane] + CCCCn1cc[n+](C)c1.COP(=O)([O-])OC | 1.0 |
| COC(C)(C)C [2-methoxy-2-methylpropane] + CCCCn1cc[n+](C)c1.[Cl-] | 1.0 |
| C1CCCC1 [cyclopentane] + CCCCn1cc[n+](C)c1.CS(=O)(=O)[O-] | 1.0 |

Please indicate if the recorded activity coefficient for C#CCCCC [1-hexyne] + CCCCn1cc[n+](C)c1.COP(=O)([O-])OC meets or exceeds 4.
0.0
